- Tested on: MDA-MB-468
- Test protocol: Antiproliferative activity against ER-negative human MDA-MB-468 cells after 48 hrs by MTT assay
- Type: functional, cell-based
- Measurement conditions: MDA-MB-468, 48 h
Parameter: IC50 (nM)

CC1=C/C(=N\NC(=O)c2ccncc2)c2c(O)cccc2C1=O; 3300
CC1=C/C(=N\NC(=O)c2cccnc2)c2c(O)cccc2C1=O; 1900
CC1=CC(=O)c2c(O)cccc2C1=O; 2500

[1] CC1=C/C(=N\NC(=O)c2ccccc2)c2c(O)cccc2C1=O
[2] CC1=C/C(=N\NC(=O)c2ccccc2O)c2c(O)cccc2C1=O
Task: Param pair: 1 , 2 . Output: the one whose IC50 is numerically greater. Answer by stating the label of the chosen item.
Output: 2

// data source = ChEMBL document CHEMBL2016546
